- EXPERIMENT DESCRIPTION: Toxicity against human erythrocytes assessed as hemolytic activity
- Type: cell-based, Erythrocyte
Reported values of EC50 for individual entries
The reply should contain only the number, in µg/mL.

Example entries begin here.
CCCCCCCCCCCCCCCCCC(=O)NCc1ccc(C(=O)N[C@H](C(=O)O)[C@@H](C)CC)cc1	30
CCCCCCCCCCCC(=O)NCc1ccc(C(=O)N[C@H](C(=O)O)[C@@H](C)CC)cc1	400

API: the following record is the query input.
Short answer for CCCCCCCCCCCCCC(=O)NCc1ccc(C(=O)N[C@H](C(N)=O)[C@@H](C)CC)cc1 : EC50 was 100
